Cited source: ChEMBL document CHEMBL1961873

Molecular target: Vascular endothelial growth factor receptor 1 (Homo sapiens) (UniProt P17948);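 also: values are mean percent inhibition of FLT1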
Sequence (P17948 whole entry): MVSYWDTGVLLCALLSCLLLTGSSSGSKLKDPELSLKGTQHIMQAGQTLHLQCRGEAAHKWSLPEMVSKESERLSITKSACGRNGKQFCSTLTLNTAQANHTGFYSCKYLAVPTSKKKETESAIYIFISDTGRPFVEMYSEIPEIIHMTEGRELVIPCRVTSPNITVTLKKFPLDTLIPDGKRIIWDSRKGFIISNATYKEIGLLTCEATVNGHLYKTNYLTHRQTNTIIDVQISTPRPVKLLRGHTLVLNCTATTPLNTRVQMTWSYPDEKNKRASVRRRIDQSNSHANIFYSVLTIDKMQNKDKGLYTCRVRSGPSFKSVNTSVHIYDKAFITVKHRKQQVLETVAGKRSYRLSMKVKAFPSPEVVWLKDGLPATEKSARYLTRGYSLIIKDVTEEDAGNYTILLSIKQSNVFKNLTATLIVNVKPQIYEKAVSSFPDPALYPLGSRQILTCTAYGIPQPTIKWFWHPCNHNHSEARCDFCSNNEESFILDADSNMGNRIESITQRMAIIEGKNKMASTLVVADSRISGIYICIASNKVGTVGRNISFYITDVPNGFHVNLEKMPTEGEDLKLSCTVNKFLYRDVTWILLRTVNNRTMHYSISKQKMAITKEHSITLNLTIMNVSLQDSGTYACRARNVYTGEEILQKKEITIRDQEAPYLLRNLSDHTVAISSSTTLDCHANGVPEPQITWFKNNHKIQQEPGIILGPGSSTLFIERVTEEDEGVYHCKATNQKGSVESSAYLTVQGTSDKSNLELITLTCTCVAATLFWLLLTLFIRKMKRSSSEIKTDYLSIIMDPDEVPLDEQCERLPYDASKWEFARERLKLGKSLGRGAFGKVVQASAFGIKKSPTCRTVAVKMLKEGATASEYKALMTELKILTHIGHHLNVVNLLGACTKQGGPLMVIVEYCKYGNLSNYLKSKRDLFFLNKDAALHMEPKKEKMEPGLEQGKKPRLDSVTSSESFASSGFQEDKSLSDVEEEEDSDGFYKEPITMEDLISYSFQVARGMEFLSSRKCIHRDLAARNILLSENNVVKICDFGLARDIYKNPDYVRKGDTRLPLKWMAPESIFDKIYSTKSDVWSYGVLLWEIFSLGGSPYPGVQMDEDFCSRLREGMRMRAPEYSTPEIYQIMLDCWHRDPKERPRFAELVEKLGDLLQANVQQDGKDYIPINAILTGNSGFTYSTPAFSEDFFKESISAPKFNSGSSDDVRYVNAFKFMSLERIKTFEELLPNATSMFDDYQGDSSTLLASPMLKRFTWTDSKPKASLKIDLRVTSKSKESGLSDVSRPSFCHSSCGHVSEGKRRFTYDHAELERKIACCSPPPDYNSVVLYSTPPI
Conditions: at 0.1 µM
valueKind: inhibition (%)
Dear colleague, please return just the value in %, with no unit written.

Consider the compound COc1cc2c(cc1Nc1nc(Nc3cccc(F)c3C(N)=O)c3cc[nH]c3n1)N(C(=O)CN1CCN(C(C)C)CC1)CC2 . State its measured inhibition.
-1.2

Consider the compound CC(C)c1ccc(-c2cc(-c3c[nH]nc3-c3ccccn3)ccn2)cc1 . State its measured inhibition.
0.29

Consider the compound CS(=O)(=O)CCNCc1ccc(-c2ccc3ncnc(Nc4ccc(OCc5ccccc5)cc4)c3c2)o1 . State its measured inhibition.
2.38

Consider the compound COc1cccc(Nc2nccc(-c3cnn4ncccc34)n2)c1 . State its measured inhibition.
9.62

Consider the compound NC(=O)c1ccc2c(-c3ccnc(NCCCO)n3)c(-c3ccc(F)cc3)nn2c1 . State its measured inhibition.
3.74

Consider the compound COC(=O)Nc1nc2cc(Oc3ccc(NC(=O)Nc4ccccc4)cc3)ccc2[nH]1 . State its measured inhibition.
16.5

Consider the compound COc1cc(Nc2ncc(-c3ccccc3)o2)cc(OC)c1 . State its measured inhibition.
4.69

Consider the compound OCCCNc1nccc(-c2c(-c3ccc(F)cc3)nn3cc(C(F)(F)F)ccc23)n1 . State its measured inhibition.
1.4

Consider the compound COc1ccccc1-c1cc(/C=C2\C(=O)Nc3ncc(Br)cc32)cc(Br)c1O . State its measured inhibition.
3.32

Consider the compound c1ccc(-c2n[nH]cc2-c2ccnc(-c3ccc(OCCn4ccnc4)cc3)c2)nc1 . State its measured inhibition.
5.66

Consider the compound Cc1cc(O)cc(C)c1/C=C/c1cncc(C(N)=O)c1 . State its measured inhibition.
1.23

Consider the compound Fc1ccc(Nc2nccc(-c3c(-c4ccc(C(F)(F)F)cc4)nn4ncccc34)n2)cc1F . State its measured inhibition.
1.95

Consider the compound NS(=O)(=O)c1cccc(N/C=C2\C(=O)Nc3ccccc32)c1 . State its measured inhibition.
7.92

Consider the compound CCn1c(-c2nonc2N)nc2cncc(C(=O)NCCNC)c21 . State its measured inhibition.
2.02

Consider the compound CCS(=O)(=O)c1ccc(OC)c(Nc2ncc(-c3cccc(C(C)=O)c3)o2)c1 . State its measured inhibition.
3.88

Consider the compound CC1(C)CC(n2cnc(-c3ccc(F)cc3)c2-c2ccnc(N)n2)CC(C)(C)N1 . State its measured inhibition.
1.16

Consider the compound NS(=O)(=O)c1ccc(N/N=C2\C(=O)Nc3ccc(C(=O)NCc4ccncc4)cc32)cc1 . State its measured inhibition.
2.5

Consider the compound CCCNc1cccc(-n2ncc3c(N/N=C/c4ccncc4)ncnc32)c1 . State its measured inhibition.
2.98

Consider the compound O=C(O[C@H]1CN[C@H](C#Cc2cc3ncnc(Nc4ccc5c(ccn5Cc5cc(F)ccc5F)c4)c3s2)C1)N1CCOCC1 . State its measured inhibition.
0.98

Consider the compound CN1CCC(n2cnc(-c3ccc(F)cc3)c2-c2ccnc(NCCO)n2)CC1 . State its measured inhibition.
1.32

Consider the compound Fc1cccc(COc2ccc(Nc3ncncc3C#Cc3ccccc3)cc2Cl)c1 . State its measured inhibition.
1.51

Consider the compound CS(=O)(=O)Nc1ccc(-c2ccc3c(NC(=O)C4CC4)n[nH]c3c2)cc1 . State its measured inhibition.
1.26

Consider the compound COc1c(C(N)=O)cc(-c2ccc(Cl)cc2)cc1-c1ccc(S(N)(=O)=O)cc1 . State its measured inhibition.
-0.38

Consider the compound NS(=O)(=O)c1ccc(N/N=C2\C(=O)Nc3cccc(CCc4ccncc4)c32)cc1 . State its measured inhibition.
5.3
